// provenance: the RNAGym collection of RNA variant scans (doi:10.1002/anie.201605470)

B1: Osa-1-4 twister ribozyme (parent)
chain: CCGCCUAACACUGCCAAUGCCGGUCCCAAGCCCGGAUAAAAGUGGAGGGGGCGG

Variants of: B1
test_protocol: self-cleavage, relative activity (ratio to wild type); higher = more cleavage; co-transcriptional
Decide by self-cleavage: equal to or exceeding 0.1 means Criterion met, less means Criterion not met.

Query block: State whether the measured self-cleavage reaches 0.1, counting equality as reaching it, for A7C C15U
Result block: Criterion not met

Query block: State whether the measured self-cleavage reaches 0.1, counting equality as reaching it, for A41G U18A
Result block: Criterion met

Query block: State whether the measured self-cleavage reaches 0.1, counting equality as reaching it, for G50U U12G
Result block: Criterion met

Query block: State whether the measured self-cleavage reaches 0.1, counting equality as reaching it, for A38C U37C
Result block: Criterion met

Query block: State whether the measured self-cleavage reaches 0.1, counting equality as reaching it, for C25G C27U
Result block: Criterion not met

Query block: State whether the measured self-cleavage reaches 0.1, counting equality as reaching it, for C15A U37A
Result block: Criterion met

Query block: State whether the measured self-cleavage reaches 0.1, counting equality as reaching it, for A28C G13U
Result block: Criterion not met

Query block: State whether the measured self-cleavage reaches 0.1, counting equality as reaching it, for A28U A40C
Result block: Criterion not met

Query block: State whether the measured self-cleavage reaches 0.1, counting equality as reaching it, for C31U G48A
Result block: Criterion not met

Query block: State whether the measured self-cleavage reaches 0.1, counting equality as reaching it, for A17G C32A
Result block: Criterion not met

Query block: State whether the measured self-cleavage reaches 0.1, counting equality as reaching it, for C52G G47A
Result block: Criterion met

Query block: State whether the measured self-cleavage reaches 0.1, counting equality as reaching it, for C9A G53A
Result block: Criterion met

Query block: State whether the measured self-cleavage reaches 0.1, counting equality as reaching it, for "A40G"
Result block: Criterion met

Query block: State whether the measured self-cleavage reaches 0.1, counting equality as reaching it, for A38G A40C
Result block: Criterion not met

Query block: State whether the measured self-cleavage reaches 0.1, counting equality as reaching it, for A41G C14G
Result block: Criterion met

Query block: State whether the measured self-cleavage reaches 0.1, counting equality as reaching it, for A39U C26A
Result block: Criterion not met

Query block: State whether the measured self-cleavage reaches 0.1, counting equality as reaching it, for A10C A28G
Result block: Criterion not met

Query block: State whether the measured self-cleavage reaches 0.1, counting equality as reaching it, for A10C U18A
Result block: Criterion not met

Query block: State whether the measured self-cleavage reaches 0.1, counting equality as reaching it, for G42C G53A
Result block: Criterion met

Query block: State whether the measured self-cleavage reaches 0.1, counting equality as reaching it, for G23U G44C
Result block: Criterion not met

Query block: State whether the measured self-cleavage reaches 0.1, counting equality as reaching it, for A40U G54A
Result block: Criterion met

Query block: State whether the measured self-cleavage reaches 0.1, counting equality as reaching it, for A17G G51U
Result block: Criterion met

Query block: State whether the measured self-cleavage reaches 0.1, counting equality as reaching it, for A38G G30U
Result block: Criterion not met

Query block: State whether the measured self-cleavage reaches 0.1, counting equality as reaching it, for C26U G23U
Result block: Criterion not met

Query block: State whether the measured self-cleavage reaches 0.1, counting equality as reaching it, for A41U G35C
Result block: Criterion met

Query block: State whether the measured self-cleavage reaches 0.1, counting equality as reaching it, for C25A C26U
Result block: Criterion not met

Query block: State whether the measured self-cleavage reaches 0.1, counting equality as reaching it, for A40G G50C
Result block: Criterion met

Query block: State whether the measured self-cleavage reaches 0.1, counting equality as reaching it, for G54A U43G
Result block: Criterion met

Query block: State whether the measured self-cleavage reaches 0.1, counting equality as reaching it, for C26U G48A
Result block: Criterion met

Query block: State whether the measured self-cleavage reaches 0.1, counting equality as reaching it, for G35C G44C
Result block: Criterion met

Query block: State whether the measured self-cleavage reaches 0.1, counting equality as reaching it, for A28C G35U
Result block: Criterion met

Query block: State whether the measured self-cleavage reaches 0.1, counting equality as reaching it, for A7C G49A
Result block: Criterion not met

Query block: State whether the measured self-cleavage reaches 0.1, counting equality as reaching it, for C31U C9U
Result block: Criterion met

Query block: State whether the measured self-cleavage reaches 0.1, counting equality as reaching it, for G34U G45A
Result block: Criterion not met

Query block: State whether the measured self-cleavage reaches 0.1, counting equality as reaching it, for A7G C27A
Result block: Criterion not met

Query block: State whether the measured self-cleavage reaches 0.1, counting equality as reaching it, for A46C G13U
Result block: Criterion not met

Query block: State whether the measured self-cleavage reaches 0.1, counting equality as reaching it, for "C27G"
Result block: Criterion met

Query block: State whether the measured self-cleavage reaches 0.1, counting equality as reaching it, for A39U G50C
Result block: Criterion met

Query block: State whether the measured self-cleavage reaches 0.1, counting equality as reaching it, for C15G C52A
Result block: Criterion met

Query block: State whether the measured self-cleavage reaches 0.1, counting equality as reaching it, for C31G U43C
Result block: Criterion not met

Query block: State whether the measured self-cleavage reaches 0.1, counting equality as reaching it, for A29U G54A
Result block: Criterion not met

Query block: State whether the measured self-cleavage reaches 0.1, counting equality as reaching it, for A7U C20G
Result block: Criterion met

Query block: State whether the measured self-cleavage reaches 0.1, counting equality as reaching it, for A10G G34A
Result block: Criterion met

Query block: State whether the measured self-cleavage reaches 0.1, counting equality as reaching it, for G47U U37A
Result block: Criterion met
